System: giant foxtail
Experiment: Test B pre/postemergence giant foxtail
Assay type: in vivo, Setaria faberii
Experimental Context: Preemergence, Rate 62 g/ha; scale 0 to 10 (0 no effect, 10 complete control)
# note: boundary value 3 maps to no (0); Giant foxtail plant response rating below it maps to yes (1)

Check out these entries, answers already filled in.
smiles_code=CC(C)N(C(=O)n1oc(=O)n(CCCCF)c1=O)c1ccc(Cl)cc1 label_value="no (0)"
smiles_code=CC(C)N(C(=O)n1oc(=O)n(C)c1=O)c1ccc(F)cc1 label_value="no (0)"
smiles_code=C=C(Cn1c(=O)on(C(=O)N(c2ccccc2)C(C)C)c1=O)c1ccc(F)cc1 label_value="yes (1)"
smiles_code=CC(C)N(C(=O)n1oc(=O)n(CCC(F)=C(F)F)c1=O)c1ccccc1 label_value="no (0)"

Next, consider the following compound.
Q: Please check: Giant foxtail plant response rating for CCC=CCn1c(=O)on(C(=O)N(c2ccc(Cl)cc2)C(C)C)c1=O , strictly under 3 or not?
A: no (0)

* * *

Listed next: entries and their corresponding Soybean plant response rating.
Test system: soybean
Experiment: Test B pre/postemergence soybean
Assay type: in vivo, Glycine max
Experimental Context: Rate 125 g/ha; Postemergence; scale 0 to 10, 0 no effect, 10 complete control
// no unit string in output, number only

smiles_code=Cc1cccc(C(C)C)c1-n1c(=O)on(C(=O)N(c2ccc(Cl)cc2)C(C)C)c1=O result_number=0

Next up:
Q: Recorded Soybean plant response rating for COc1ccc(-n2c(=O)on(C(=O)N(c3ccc(F)cc3F)C(C)C)c2=O)c(OC)c1 , please?
A: 2

* * *

Tested on: crabgrass
Experiment: Test B pre/postemergence crabgrass
Assay type: in vivo, Digitaria sanguinalis
Experimental Context: Preemergence, Rate 125 g/ha; scale 0 to 10 (0 no effect, 10 complete control)
Procedure: […] At the same time, these crop and weed species were also treated with postemergence applications of test chemicals formulated in the same manner. […] Treated plants and controls were maintained in a greenhouse for twelve to sixteen days, after which all species were compared to controls and visually evaluated. […]
Reported Metric: Plant response rating, Crabgrass
// print number alone

Below are worked cases with known answers.
smiles_code=CCN(CC)C(=O)n1oc(=O)n(-c2c(C)cccc2C)c1=O system_name=crabgrass reported_metric="Plant response rating, Crabgrass" result_number=0
smiles_code=CCN(C(=O)n1oc(=O)n(-c2ccccc2OC)c1=O)C1CCCCC1 system_name=crabgrass reported_metric="Plant response rating, Crabgrass" result_number=4
smiles_code=Cc1ccc(N(C(=O)n2oc(=O)n(-c3ccccc3C)c2=O)C(C)C)cc1 system_name=crabgrass reported_metric="Plant response rating, Crabgrass" result_number=4

Q: Returns the measured Plant response rating, Crabgrass for the input molecule. Input: Cc1cccc(C(C)C)c1-n1c(=O)on(C(=O)N(c2ccc(Cl)cc2)C(C)C)c1=O
A: 0

Q: Can you share its Plant response rating, Crabgrass? I mean this molecule: CC(C)N(C(=O)n1oc(=O)n(Cc2ccccc2)c1=O)c1ccc(F)cc1
A: 9

Q: Would you mind telling me what Plant response rating, Crabgrass value was observed for Cc1cc(C)c(-n2c(=O)on(C(=O)N(c3ccc(Cl)cc3)C(C)C)c2=O)c(C)c1 ?
A: 4

Q: // returns reported Plant response rating, Crabgrass for input CC(C)N(C(=O)n1oc(=O)n(-c2ccccc2)c1=O)c1ccc(F)cc1
A: 5

Q: Look at this molecule and give its reported Plant response rating, Crabgrass. CC(C)N(C(=O)n1oc(=O)n(Cc2ccccc2)c1=O)c1ccc(F)cc1F
A: 7

Q: Quick check: Plant response rating, Crabgrass of Cc1ccccc1-n1c(=O)on(C(=O)N(c2ccc(F)c(F)c2)C(C)C)c1=O ?
A: 6
